studySystem: PIK3CD (human) (UniProt O00329)
Sequence (O00329 whole entry, looked up): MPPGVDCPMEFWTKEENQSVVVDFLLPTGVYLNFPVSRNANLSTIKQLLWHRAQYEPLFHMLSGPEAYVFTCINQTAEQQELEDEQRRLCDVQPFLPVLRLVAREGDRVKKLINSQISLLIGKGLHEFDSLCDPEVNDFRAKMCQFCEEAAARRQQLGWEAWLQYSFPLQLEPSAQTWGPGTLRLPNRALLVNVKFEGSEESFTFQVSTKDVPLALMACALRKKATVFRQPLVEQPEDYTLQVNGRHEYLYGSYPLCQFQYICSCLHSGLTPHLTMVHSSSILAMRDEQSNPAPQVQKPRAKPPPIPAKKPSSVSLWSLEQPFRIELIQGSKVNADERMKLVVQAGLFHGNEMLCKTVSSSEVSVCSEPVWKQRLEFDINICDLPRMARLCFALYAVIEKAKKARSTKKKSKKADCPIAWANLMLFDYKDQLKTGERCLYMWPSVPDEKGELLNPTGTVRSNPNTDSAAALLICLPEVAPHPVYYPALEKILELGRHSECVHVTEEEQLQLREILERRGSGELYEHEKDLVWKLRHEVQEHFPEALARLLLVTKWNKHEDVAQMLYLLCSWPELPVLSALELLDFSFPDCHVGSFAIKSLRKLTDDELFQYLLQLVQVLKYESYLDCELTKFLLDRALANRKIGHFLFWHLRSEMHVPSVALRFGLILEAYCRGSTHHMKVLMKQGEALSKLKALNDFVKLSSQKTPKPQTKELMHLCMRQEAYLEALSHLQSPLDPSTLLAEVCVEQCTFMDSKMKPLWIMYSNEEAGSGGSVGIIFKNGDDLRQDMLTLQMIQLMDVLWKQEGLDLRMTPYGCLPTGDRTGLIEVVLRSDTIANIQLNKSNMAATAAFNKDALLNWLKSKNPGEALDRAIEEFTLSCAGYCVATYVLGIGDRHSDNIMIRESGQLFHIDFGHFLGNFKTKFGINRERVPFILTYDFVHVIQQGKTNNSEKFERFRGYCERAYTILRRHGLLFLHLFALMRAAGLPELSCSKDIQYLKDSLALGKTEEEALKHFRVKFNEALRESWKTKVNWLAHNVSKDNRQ
testSummary: KINOMEscan competition binding
conditionLabel: compound 10.0 µM
Measured kinase still bound, per cent of control accompanies every entry in the list below.
testReadout: kinase still bound, per cent of control (%)

• O=c1cc(N2CCOCC2)oc2c(-c3cccc4c3sc3ccccc34)cccc12 = 3.3
• CS(=O)(=O)N1CCN(Cc2cc3nc(-c4cccc5[nH]ncc45)nc(N4CCOCC4)c3s2)CC1 = 5.2
• COCC(=O)NC/C=C/c1ccc2ncnc(Nc3ccc(Oc4ccc(C)nc4)c(C)c3)c2c1 = 100
• N#CCNC(=O)c1ccc(-c2ccnc(Nc3ccc(N4CCOCC4)cc3)n2)cc1 = 45
• CCN1CCN(C(=O)Cc2ccc(Nc3ncc(F)c(Nc4ccc(C(=O)Nc5ccccc5Cl)cc4)n3)cc2)CC1 = 41
• C=CC(=O)Nc1cc(-n2c(=O)ccc3cnc4ccc(-c5cn[nH]c5)cc4c32)ccc1C = 27
• O=C(Nc1cccc(Nc2ncc(Br)c(NCCc3cnc[nH]3)n2)c1)N1CCCC1 = 84
• COc1ccc(N(C(=O)Oc2c(C)cccc2C)c2ccnc(Nc3ccc(N4CCN(C)CC4)cc3)n2)c(OC)c1 = 92
• O=C1NC(=O)/C(=C/c2ccc3nccc(-c4ccncc4)c3c2)S1 = 4.8
• CNC(=O)c1ccc(Nc2cc(Nc3ccccc3S(=O)(=O)C(C)C)c3cc[nH]c3n2)nc1 = 100
• C=CC(=O)Nc1ccc(CN(C(=O)Nc2c(Cl)c(OC)cc(OC)c2Cl)c2cc(Nc3ccc(N4CCN(C)CC4)cc3)ncn2)cc1 = 100
